- SYSTEM_NAME: UniProt P25099
- Sequence (P25099 whole entry): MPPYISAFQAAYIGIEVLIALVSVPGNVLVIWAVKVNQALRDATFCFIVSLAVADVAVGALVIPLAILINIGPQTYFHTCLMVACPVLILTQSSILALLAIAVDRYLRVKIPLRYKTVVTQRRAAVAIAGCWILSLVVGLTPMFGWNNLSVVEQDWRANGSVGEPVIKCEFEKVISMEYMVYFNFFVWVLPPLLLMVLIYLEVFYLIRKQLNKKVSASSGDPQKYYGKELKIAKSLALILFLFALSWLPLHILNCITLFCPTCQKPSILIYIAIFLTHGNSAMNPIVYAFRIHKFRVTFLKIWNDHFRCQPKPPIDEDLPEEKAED
The entries that follow carry pKi values tested on UniProt P25099, drawn from several published reports.
Answers are plain numbers, as −log10 of the molar value.

compound="O=S(=O)(c1ccccc1)c1nc(NC2CCCC2)c2ncn(C3O[C@H](CO)[C@@H](O)[C@H]3O)c2n1 (some centres undefined)" system_name="UniProt P25099" measured_quantity=pKi value_reported=7.02
compound=Cc1ccc(C(=O)Nc2nc(-c3ccccc3)ns2)cc1 system_name="UniProt P25099" measured_quantity=pKi value_reported=7.52
compound=O=C(Nc1nc(-c2ccccc2)nc2c1nnn2Cc1ccccc1)c1ccccc1F system_name="UniProt P25099" measured_quantity=pKi value_reported=7.40

query: Entry under review: COc1ccccc1C(=O)Nc1nc(-c2ccccc2)nc2c1nnn2Cc1ccccc1 . Reported pKi?
result: 5.82
